# tgt: KOR (Cavia porcellus)
# Construct: from tissue
# assayOverview: Opioid receptor binding, KOR, guinea pig brain membranes
# conditionSummary: Binding Ki KOR, Table 1-4, guinea pig brain membranes
valueType: pKi
Expect pKi as a plain number equal to -log10 of the molar concentration.

Example results:
CO[C@@]12CC[C@@H](N[C@@H](Cc3c[nH]c4ccccc34)C(=O)O)[C@@H]3Oc4c(O)ccc5c4[C@@]31CCN(C)[C@@H]2C5 [Compound 46]
8.06
CCO[C@@]12CC[C@H](NCC(=O)O)[C@@H]3Oc4c(O)ccc5c4[C@@]31CCN(C)[C@@H]2C5 [Compound 5]
7.34
COC12CCC(NC(C)C(=O)O)C3Oc4c(O)ccc5c4C31CCN(C)C2C5 (single isomer, unassigned) [Compound 1]
6.85
CO[C@@]12CC[C@@H](N[C@@H](CC(C)C)C(=O)O)[C@@H]3Oc4c(O)ccc5c4[C@@]31CCN(C)[C@@H]2C5 [Compound 41]
6.53
CO[C@@]12CC[C@H](N[C@@H](CC(C)C)C(=O)O)[C@@H]3Oc4c(O)ccc5c4[C@@]31CCN(C)[C@@H]2C5 [Compound 40]
6.85
CO[C@@]12CC[C@H](N[C@@H](CCSC)C(=O)O)[C@@H]3Oc4c(O)ccc5c4[C@@]31CCN(C)[C@@H]2C5 [Compound 23]
6.96
COC12CCC(NCCC(=O)O)C3Oc4c(O)ccc5c4C31CCN(C)C2C5 (single isomer, unassigned) [Compound 21]
6.74
CN1CC[C@]23c4c5ccc(O)c4O[C@H]2[C@@H](N[C@@H](Cc2ccccc2)C(=O)O)CC[C@@]3(O)[C@H]1C5 [Compound 11]
6.46

Prompt line: Given the entry CO[C@@]12CC[C@@H](N[C@@H](CC(N)=O)C(=O)O)[C@@H]3Oc4c(O)ccc5c4[C@@]31CCN(C)[C@@H]2C5 [Compound 27] , report its measured pKi.
Response line: 6.99

Prompt line: Try the compound COC12CCC(NC(C(=O)O)C(C)C)C3Oc4c(O)ccc5c4C31CCN(C)C2C5 (single isomer, unassigned) [Compound 31]
Response line: 6.80

Prompt line: Next record, please: CO[C@@]12CC[C@H](N[C@@H](CC(N)=O)C(=O)O)[C@@H]3Oc4c(O)ccc5c4[C@@]31CCN(C)[C@@H]2C5 [Compound 26]
Response line: 7.13

Prompt line: Try this compound too: COC12CCC(NC(C)C(=O)O)C3Oc4c(O)ccc5c4C31CCN(C)C2C5 (single isomer, unassigned) [Compound 54]
Response line: 6.85

Prompt line: C[C@H](N[C@@H]1CC[C@@]2(O)[C@H]3Cc4ccc(O)c5c4[C@@]2(CCN3C)[C@H]1O5)C(=O)O [Compound 14] ?
Response line: 6.27

###

Listing of entries alongside the reported Ki.
# tgt: DOR (Rattus norvegicus, UniProt P33533)
# Construct: from tissue
# Sequence (P33533 whole entry): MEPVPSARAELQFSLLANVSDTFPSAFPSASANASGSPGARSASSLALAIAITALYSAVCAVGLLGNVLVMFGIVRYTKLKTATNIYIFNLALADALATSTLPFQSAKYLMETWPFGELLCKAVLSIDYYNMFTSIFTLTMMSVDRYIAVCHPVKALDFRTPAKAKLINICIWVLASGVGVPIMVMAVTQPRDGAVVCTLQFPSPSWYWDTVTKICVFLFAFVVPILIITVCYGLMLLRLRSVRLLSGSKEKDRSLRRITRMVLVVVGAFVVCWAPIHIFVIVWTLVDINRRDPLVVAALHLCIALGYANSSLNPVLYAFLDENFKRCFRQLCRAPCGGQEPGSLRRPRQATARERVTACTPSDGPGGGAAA
# assayOverview: Opioid receptor binding, DOR, rat brain membranes
# conditionSummary: Binding Ki DOR, Table 2-6, rat brain membranes
Just the number please, in nM, no unit attached.

Worked set:
CCO[C@@]12CC[C@@H](N[C@@H](Cc3ccccc3)C(=O)O)[C@@H]3Oc4c(O)ccc5c4[C@@]31CCN(CC1CC1)[C@@H]2C5
1.76
CCO[C@@]12CC[C@H](N[C@@H](Cc3ccccc3)C(=O)OC(C)(C)C)[C@@H]3Oc4c(O)ccc5c4[C@@]31CCN(CC1CC1)[C@@H]2C5
2.38
CO[C@@]12CC[C@H](NCCC(=O)O)[C@@H]3Oc4c(O)ccc5c4[C@@]31CCN(CC1CC1)[C@@H]2C5
6.25

Prompt line: What Ki value was documented for this molecule, `CO[C@@]12CC[C@@H](N[C@@H](CCC(=O)O)C(=O)O)[C@@H]3Oc4c(O)ccc5c4[C@@]31CCN(CC1CC1)[C@@H]2C5` ?
Response line: 2.77

Prompt line: Record: `CO[C@@]12CC[C@@H](NCCCC(=O)O)[C@@H]3Oc4c(O)ccc5c4[C@@]31CCN(CC1CC1)[C@@H]2C5`
Response line: 10.2

Prompt line: Likewise for `CO[C@@]12CC[C@H](N[C@@H](CC(C)C)C(=O)OC(C)(C)C)[C@@H]3Oc4c(O)ccc5c4[C@@]31CCN(CC1CC1)[C@@H]2C5` ?
Response line: 0.092

Prompt line: // same read-out, input: `CO[C@@]12CC[C@H](N[C@@H](Cc3ccccc3)C(=O)O)[C@@H]3Oc4c(O)ccc5c4[C@@]31CCN(CC1CC1)[C@@H]2C5`
Response line: 1.17

Prompt line: Same thing, different molecule: `CO[C@@]12CC[C@H](NCC(=O)OC(C)(C)C)[C@@H]3Oc4c(O)ccc5c4[C@@]31CCN(CC1CC1)[C@@H]2C5`
Response line: 0.5

Prompt line: Also `CO[C@@]12CC[C@H](NCCCC(=O)OC(C)(C)C)[C@@H]3Oc4c(O)ccc5c4[C@@]31CCN(CC1CC1)[C@@H]2C5` , if possible.
Response line: 2.69

Prompt line: Would you mind doing `CO[C@@]12CC[C@@H](N[C@H](C(=O)OC(C)(C)C)C(C)C)[C@@H]3Oc4c(O)ccc5c4[C@@]31CCN(CC1CC1)[C@@H]2C5` as well?
Response line: 0.7

Prompt line: Moving on to the next molecule: `CC(C)(C)OC(=O)[C@H](Cc1ccccc1)N[C@@H]1CC[C@@]2(O)[C@H]3Cc4ccc(O)c5c4[C@@]2(CCN3CC2CC2)[C@H]1O5`
Response line: 1.12

Prompt line: Then `CCO[C@@]12CC[C@H](N[C@@H](Cc3ccccc3)C(=O)O)[C@@H]3Oc4c(O)ccc5c4[C@@]31CCN(CC1CC1)[C@@H]2C5` ?
Response line: 0.7

Prompt line: Same question for COC12CCC(NC(C(=O)O)C(C)C)C3Oc4c(O)ccc5c4C31CCN(CC1CC1)C2C5 (single isomer, unassigned) [Compound 70] please.
Response line: 0.71

Prompt line: Please answer likewise for `CO[C@@]12CC[C@@H](NCCC(=O)O)[C@@H]3Oc4c(O)ccc5c4[C@@]31CCN(CC1CC1)[C@@H]2C5`
Response line: 8.12

Prompt line: Then what about the molecule `CC[C@H](C)[C@H](N[C@@H]1CC[C@@]2(OC)[C@H]3Cc4ccc(O)c5c4[C@@]2(CCN3CC2CC2)[C@H]1O5)C(=O)OC(C)(C)C` ?
Response line: 0.52

Prompt line: Next entry: `CO[C@@]12CC[C@H](N[C@@H](C(=O)OC(C)(C)C)C(C)C)[C@@H]3Oc4c(O)ccc5c4[C@@]31CCN(CC1CC1)[C@@H]2C5`
Response line: 0.51

Prompt line: And for `CO[C@@]12CC[C@@H](N[C@@H](C)C(=O)OC(C)(C)C)[C@@H]3Oc4c(O)ccc5c4[C@@]31CCN(CC1CC1)[C@@H]2C5` ?
Response line: 0.32

Prompt line: What do we get for COC12CCC(NC(C(=O)O)C(C)C)C3Oc4c(O)ccc5c4C31CCN(CC1CC1)C2C5 (single isomer, unassigned) [Compound 68] ?
Response line: 0.53

Prompt line: Now consider `CO[C@@]12CC[C@H](N[C@@H](CC(C)C)C(=O)O)[C@@H]3Oc4c(O)ccc5c4[C@@]31CCN(CC1CC1)[C@@H]2C5` and answer again.
Response line: 2.2

###

# tgt: MOR (Rattus norvegicus)
# Construct: from tissue
# Sequence (P33535 whole entry): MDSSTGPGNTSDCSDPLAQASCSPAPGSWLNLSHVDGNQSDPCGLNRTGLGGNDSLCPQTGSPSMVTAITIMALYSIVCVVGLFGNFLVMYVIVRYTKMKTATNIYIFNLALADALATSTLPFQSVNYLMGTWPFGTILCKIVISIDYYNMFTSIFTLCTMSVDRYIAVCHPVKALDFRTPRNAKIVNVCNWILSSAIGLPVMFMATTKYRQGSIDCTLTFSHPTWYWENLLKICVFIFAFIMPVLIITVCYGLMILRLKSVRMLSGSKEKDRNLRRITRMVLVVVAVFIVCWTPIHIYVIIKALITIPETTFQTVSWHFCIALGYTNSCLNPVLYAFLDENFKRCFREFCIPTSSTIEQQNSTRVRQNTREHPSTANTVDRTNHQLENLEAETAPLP
# assayOverview: Opioid receptor binding, MOR, rat brain membranes
# conditionSummary: Binding Ki (nM) MOR, in vitro binding assay, rat brain membranes
valueType: Ki (nM)
Give the quantity in nM, number only.

Prompt line: Item under review: `CO[C@@]12CC[C@@H](N[C@H](C(=O)OC(C)(C)C)C(C)C)[C@@H]3Oc4c(O)ccc5c4[C@@]31CCN(C)[C@@H]2C5` . Reported Ki?
Response line: 1.03

Prompt line: Would you kindly repeat that for `CCO[C@@]12CC[C@@H](NCC(=O)O)[C@@H]3Oc4c(O)ccc5c4[C@@]31CCN(C)[C@@H]2C5` ?
Response line: 0.95

###

# tgt: KOR (Cavia porcellus, UniProt P41144)
# Construct: from tissue
# Sequence (P41144 whole entry): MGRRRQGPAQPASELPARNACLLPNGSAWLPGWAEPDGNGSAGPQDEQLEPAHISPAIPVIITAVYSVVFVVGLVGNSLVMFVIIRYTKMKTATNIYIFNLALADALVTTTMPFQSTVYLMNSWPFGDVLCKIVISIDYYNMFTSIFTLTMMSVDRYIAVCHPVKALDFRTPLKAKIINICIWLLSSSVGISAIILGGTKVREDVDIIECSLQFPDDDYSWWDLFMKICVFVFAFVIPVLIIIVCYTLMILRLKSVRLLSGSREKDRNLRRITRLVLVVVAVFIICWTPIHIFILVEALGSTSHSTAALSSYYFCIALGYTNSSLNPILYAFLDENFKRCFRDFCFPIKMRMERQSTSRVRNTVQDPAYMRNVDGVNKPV
# assayOverview: Opioid receptor binding, KOR, guinea pig brain membranes
# conditionSummary: Binding Ki KOR, Table 1-4, guinea pig brain membranes
valueType: pKi
Note on pKi: it is the negative log10 of concentration, concentration in mol/L.

Some solved entries appear below for comparison.
CO[C@@]12CC[C@H](N[C@H](C(=O)O)[C@@H](C)O)[C@@H]3Oc4c(O)ccc5c4[C@@]31CCN(C)[C@@H]2C5
6.92
COC12CCC(NC(C(=O)O)C(C)C)C3Oc4c(O)ccc5c4C31CCN(C)C2C5 (single isomer, unassigned) [Compound 28]
6.49
CO[C@@]12CC[C@H](N[C@@H](CCC(N)=O)C(=O)O)[C@@H]3Oc4c(O)ccc5c4[C@@]31CCN(C)[C@@H]2C5
6.45
COC12CCC(NC(C(=O)O)C(C)C)C3Oc4c(O)ccc5c4C31CCN(C)C2C5 (single isomer, unassigned) [Compound 30]
6.69
CO[C@@]12CC[C@@H](NCC(=O)NCC(=O)O)[C@@H]3Oc4c(O)ccc5c4[C@@]31CCN(C)[C@@H]2C5
6.69

Prompt line: So what does the record say about pKi for `CC[C@H](C)[C@H](N[C@@H]1CC[C@@]2(OC)[C@H]3Cc4ccc(O)c5c4[C@@]2(CCN3C)[C@H]1O5)C(=O)O` ?
Response line: 6.79

Hey, just so you know, these numbers are from patent US20170217976A1.
